- Tested on: Staphylococcus aureus
- assay-protocol: Antibacterial activity against clinically isolated penicillin-resistant Staphylococcus aureus by broth microdilution method
- Assay type: functional
measured-metric: MIC (µg/mL)
Hi! Could you send only the number? It should be in µg/mL, unit omitted.

{"smiles-input": "CC[C@H]1OC(=O)[C@@H](C)[C@H](O[C@H]2C[C@@](C)(OC)[C@@H](OC(=O)NNC(=O)/C=C/c3ccc(Br)cc3)[C@H](C)O2)[C@@H](C)[C@H](O[C@H]2O[C@@H](C)C[C@@H](N(C)C)[C@@H]2O)[C@@](C)(O)C[C@H](C)CN(C)[C@@H](C)[C@@H]2OC(=O)O[C@@]12C", "unit-spec": "µg/mL", "recorded-number": 8}
{"smiles-input": "CC[C@H]1OC(=O)[C@@H](C)[C@H](O[C@@H]2C[C@](C)(OC)[C@H](OC(=O)NNC(=O)/C=C/c3ccc(Cl)cc3)[C@@H](C)O2)[C@H](C)[C@H](O[C@H]2O[C@@H](C)C[C@@H](N(C)C)[C@@H]2O)[C@@](C)(O)C[C@H](C)CN(C)[C@@H](C)[C@H](OC(=O)NCc2ccccc2)[C@@]1(C)O", "unit-spec": "µg/mL", "recorded-number": 2}
{"smiles-input": "CC[C@H]1OC(=O)[C@@H](C)[C@H](O[C@H]2C[C@@](C)(OC)[C@@H](OC(=O)NNC(=O)/C=C/c3cccs3)[C@H](C)O2)[C@@H](C)[C@H](O[C@H]2O[C@@H](C)C[C@@H](N(C)C)[C@@H]2O)[C@@](C)(O)C[C@H](C)CN(C)[C@@H](C)[C@@H]2OC(=O)O[C@@]12C", "unit-spec": "µg/mL", "recorded-number": 64}
{"smiles-input": "CC[C@@H]1OC(=O)[C@H](C)[C@@H](O[C@H]2C[C@@](C)(OC)[C@@H](OC(=O)NNC(=O)/C=C/c3ccco3)[C@H](C)O2)[C@@H](C)[C@@H](O[C@@H]2O[C@H](C)C[C@H](N(C)C)[C@H]2O)[C@](C)(O)C[C@@H](C)CN(C)[C@H](C)[C@@H](OC(=O)NCc2ccc(OC)cc2)[C@]1(C)O", "unit-spec": "µg/mL", "recorded-number": 2}

Consider CC[C@H]1OC(=O)[C@@H](C)[C@H](O[C@@H]2C[C@](C)(OC)[C@H](OC(=O)NNC(=O)/C=C/c3ccc(OC)c(OC)c3)[C@@H](C)O2)[C@H](C)[C@H](O[C@H]2O[C@@H](C)C[C@@H](N(C)C)[C@@H]2O)[C@@](C)(O)C[C@H](C)CN(C)[C@@H](C)[C@H](OC(=O)NCc2ccc(OC)cc2)[C@@]1(C)O . Its measured MIC is 4

###

- System: Streptococcus pneumoniae
- assay-protocol: Antibacterial activity against erythromycin-resistant Streptococcus pneumoniae A22072 expressing mefA gene by broth microdilution method
- Type: functional
measured-metric: MIC (µg/mL)
Hi! Could you send only the number? It should be in µg/mL, unit omitted.

{"smiles-input": "CC[C@H]1OC(=O)[C@@H](C)[C@H](O[C@H]2C[C@@](C)(OC)[C@@H](OC(=O)NNC(=O)/C=C/c3ccc(F)cc3)[C@H](C)O2)[C@@H](C)[C@H](O[C@H]2O[C@@H](C)C[C@@H](N(C)C)[C@@H]2O)[C@@](C)(O)C[C@H](C)CN(C)[C@@H](C)[C@@H]2OC(=O)O[C@@]12C", "MIC (µg/mL)": 2}

Kindly review the next molecule as well.
Consider CC[C@H]1OC(=O)[C@@H](C)[C@H](O[C@@H]2C[C@](C)(OC)[C@H](OC(=O)NNC(=O)/C=C/c3ccc(Br)cc3)[C@@H](C)O2)[C@H](C)[C@H](O[C@H]2O[C@@H](C)C[C@@H](N(C)C)[C@@H]2O)[C@@](C)(O)C[C@H](C)CN(C)[C@@H](C)[C@H](OC(=O)NCc2ccc(OC)cc2)[C@@]1(C)O . Its measured MIC is 0.25

###

- System: Staphylococcus aureus
- assay-protocol: Antibacterial activity against clinically isolated penicillin-resistant Staphylococcus aureus by broth microdilution method
- Assay type: functional
measured-metric: MIC (µg/mL)
Hi! Could you send only the number? It should be in µg/mL, unit omitted.

Use these answered entries as a reference point.
{"smiles-input": "CC[C@H]1OC(=O)[C@@H](C)[C@H](O[C@@H]2C[C@](C)(OC)[C@H](OC(=O)NNC(=O)/C=C/c3ccc(Br)cc3)[C@@H](C)O2)[C@H](C)[C@H](O[C@H]2O[C@@H](C)C[C@@H](N(C)C)[C@@H]2O)[C@@](C)(O)C[C@H](C)CN(C)[C@@H](C)[C@H](OC(=O)NCc2ccc(OC)cc2)[C@@]1(C)O", "measured-metric": "MIC", "recorded-number": 2}
{"smiles-input": "CC[C@@H]1OC(=O)[C@H](C)[C@@H](O[C@H]2C[C@@](C)(OC)[C@@H](OC(=O)NNC(=O)/C=C/c3ccccc3)[C@H](C)O2)[C@@H](C)[C@@H](O[C@@H]2O[C@H](C)C[C@H](N(C)C)[C@H]2O)[C@](C)(O)C[C@@H](C)CN(C)[C@H](C)[C@@H](OC(=O)NCc2ccc(OC)cc2)[C@]1(C)O", "measured-metric": "MIC", "recorded-number": 4}

Kindly review the next molecule as well.
Consider CC[C@H]1OC(=O)[C@@H](C)[C@H](O[C@H]2C[C@@](C)(OC)[C@@H](OC(=O)NNC(=O)/C=C/c3ccc(OC)c(OC)c3)[C@H](C)O2)[C@@H](C)[C@H](O[C@H]2O[C@@H](C)C[C@@H](N(C)C)[C@@H]2O)[C@@](C)(O)C[C@H](C)CN(C)[C@@H](C)[C@@H]2OC(=O)O[C@@]12C . Its measured MIC is 8

###

- System: Streptococcus pneumoniae
- assay-protocol: Antibacterial activity against erythromycin-resistant Streptococcus pneumoniae A22072 expressing mefA gene by broth microdilution method
- Assay type: functional
measured-metric: MIC (µg/mL)
Hi! Could you send only the number? It should be in µg/mL, unit omitted.

{"smiles-input": "CC[C@@H]1OC(=O)[C@H](C)[C@@H](O[C@H]2C[C@@](C)(OC)[C@@H](OC(=O)NNC(=O)/C=C/c3cc(OC)c(OC)c(OC)c3)[C@H](C)O2)[C@@H](C)[C@@H](O[C@@H]2O[C@H](C)C[C@H](N(C)C)[C@H]2O)[C@](C)(O)C[C@@H](C)CN(C)[C@H](C)[C@@H](OC(=O)NCc2ccccc2)[C@]1(C)O", "unit-spec": "µg/mL", "MIC": 2}
{"smiles-input": "CC[C@H]1OC(=O)[C@@H](C)[C@H](O[C@@H]2C[C@](C)(OC)[C@H](OC(=O)NNC(=O)/C=C/c3ccc(OC)c(OC)c3)[C@@H](C)O2)[C@H](C)[C@H](O[C@H]2O[C@@H](C)C[C@@H](N(C)C)[C@@H]2O)[C@@](C)(O)C[C@H](C)CN(C)[C@@H](C)[C@H](OC(=O)NCc2ccccc2)[C@@]1(C)O", "unit-spec": "µg/mL", "MIC": 2}

Kindly review the next molecule as well.
Streptococcus pneumoniae assay, molecule CC[C@H]1OC(=O)[C@@H](C)[C@H](O[C@H]2C[C@@](C)(OC)[C@@H](OC(=O)NNC(=O)/C=C/c3ccc([N+](=O)[O-])cc3)[C@H](C)O2)[C@@H](C)[C@H](O[C@H]2O[C@@H](C)C[C@@H](N(C)C)[C@@H]2O)[C@@](C)(O)C[C@H](C)CN(C)[C@@H](C)[C@@H]2OC(=O)O[C@@]12C , recorded MIC = 0.5

###

- Test system: Staphylococcus aureus
- assay-protocol: Antibacterial activity against clinically isolated penicillin-resistant Staphylococcus aureus by broth microdilution method
- Assay type: functional
measured-metric: MIC (µg/mL)
Hi! Could you send only the number? It should be in µg/mL, unit omitted.

{"smiles-input": "CC[C@H]1OC(=O)[C@@H](C)[C@H](O[C@H]2C[C@@](C)(OC)[C@@H](OC(=O)NNC(=O)/C=C/c3cc(OC)c(OC)c(OC)c3)[C@H](C)O2)[C@@H](C)[C@H](O[C@H]2O[C@@H](C)C[C@@H](N(C)C)[C@@H]2O)[C@@](C)(O)C[C@H](C)CN(C)[C@@H](C)[C@@H]2OC(=O)O[C@@]12C", "unit-spec": "µg/mL", "MIC": 16}

Consider CC[C@H]1OC(=O)[C@@H](C)[C@H](O[C@@H]2C[C@](C)(OC)[C@H](OC(=O)NNC(=O)/C=C/c3ccc(OC)c(OC)c3)[C@@H](C)O2)[C@H](C)[C@H](O[C@H]2O[C@@H](C)C[C@@H](N(C)C)[C@@H]2O)[C@@](C)(O)C[C@H](C)CN(C)[C@@H](C)[C@H](OC(=O)NCc2ccccc2)[C@@]1(C)O . Its measured MIC is 2
